- Measurement notes: Cytotoxicity against human breast cancer cells after 48 hrs
- Type: functional
- Setup conditions: Cancer cell lines
Structures can show the parent of a compound that is named as a salt.
Property label: log10 GI50 (log10 of the value in µM)
Form field - Quantity: GI50; Unit: µM; Scale: log10

Below, 6 compounds whose answers are already recorded.
O=C1Nc2ccccc2/C1=C\c1c(-c2ccccn2)nc2sccn12 | -0.23
Cc1ccc(-c2nc3sc(C)cn3c2/C=C2/C(=O)N(C)c3ccccc32)cc1 | 1.13
Cc1nn2c(/C=C3/C(=O)Nc4c3ccc3ccccc43)c(C)nc2s1 | -0.52
COc1cc(-c2nc3sc(C)cn3c2/C=C2/C(=O)Nc3ccccc32)c(Br)c(OC)c1OC | 1.28
Cc1ccc(-c2nc3sc(C)cn3c2/C=C2/C(=O)Nc3cc(C)c(O)cc32)cc1 | 1.10
COc1nc2sccn2c1/C=C1/C(=O)Nc2cccc(Cl)c21 | 0.51

Exercise: For the compound "COc1nc2sccn2c1/C=C1/C(=O)Nc2cc(Cl)ccc21" , what log10 GI50 is on record?
Solution: -0.27

Exercise: # input compound: CC[C@]1(O)C[C@H]2CN(CCc3c([nH]c4ccccc34)[C@@](C(=O)OC)(c3cc4c(cc3OC)N(C=O)[C@H]3[C@@](O)(C(=O)OC)[C@H](OC(C)=O)[C@]5(CC)C=CCN6CC[C@]43[C@@H]65)C2)C1 [VINCRISTINE SULFATE] ; wanted: its log10 GI50
Solution: -0.49

Exercise: // lookup log10 GI50 for "COc1nc2sccn2c1/C=C1/C(=O)N(C)c2ccccc21"
Solution: 0.34

Exercise: # query: log10 GI50 of entry "Cc1cn2c(/C=C3/C(=O)Nc4cc(Cl)ccc43)c(C)nc2s1"
Solution: 0.08

Exercise: Using the record for "COc1nc2sccn2c1/C=C1/C(=O)Nc2ccc(Cl)cc21" , report its log10 GI50.
Solution: 0.39

Exercise: Please give the measured log10 GI50 for this compound: "Cc1nn2c(/C=C3/C(=O)Nc4ccc(F)cc43)c(-c3ccc(Cl)cc3)nc2s1"
Solution: 1.56

Exercise: Item O=C1Nc2ccc(Cl)cc2C1=Cc1c(-c2ccccn2)nc2sccn12 (mixture of isomers) has what recorded log10 GI50?
Solution: -0.35
